Documented apparent KD of MS2 coat protein across a set of sequences
# Tested on: MS2 coat protein
# TEST_SUMMARY: apparent KD of MS2 coat protein; designed switch direction (-1 OFF switch, 1 ON switch): 1; higher = weaker reporter binding
# CONDITION: Eterna round: R95; input ligand: none
Note: unit nM is implicit; provide only the numeric part.

Answered cases to consult:
{"SEQUENCE_CONTENT": "AAAGAACAUGAGGAUCACCCAUGUGGAAGAGGCACAGGAUAUCACCUCGCAAGUGCAAGGUGAGAAGGGUGAUGAU [Islaonen] (puzzle: Same State 1)", "SCALE_UNIT": "nM", "apparent KD of MS2 coat protein": 205}
{"SEQUENCE_CONTENT": "UUGCAGUCAGGUGAGGAUAUCAUGAAUUAAACAUGAGGAUCACCCAUGUGCUGCCUUGCAGCAUAUGAGAAGGCACCUGGCUGCU [JL-ss2-3.01 Brourd Mod] (puzzle: Same State 2)", "SCALE_UNIT": "nM", "apparent KD of MS2 coat protein": 640}
{"SEQUENCE_CONTENT": "AGUCCAGCCUGAGCUGGACAAAAGCAUGUACAUGAGGAUCACCCAUGUCAUGUACAAGCUUUUUGCUCGAAAUAAUA [Mat - hsa-mir-208a - Mod of JL - D32] (puzzle: Sensor for hsa-mir-208a)", "SCALE_UNIT": "nM", "apparent KD of MS2 coat protein": 938}
{"SEQUENCE_CONTENT": "UCUUAUAAUAAUAUAAUUCAUUUGAUAAAACAUGAGGAUCACCCAUGUCCUACUUUUUUUAAUCAUUUUAACUUUAA [The 7 c's] (puzzle: Sensor for hsa-mir-208a)", "SCALE_UNIT": "nM", "apparent KD of MS2 coat protein": 63.5}
{"SEQUENCE_CONTENT": "UCUUGGUUUUUGCUCGUUUUUUGUGUUGAACAUGAGGAUCACCCAUGUAUUAUACGGUCCGGUUUAGUAGUGGUCCG [JMF 79] (puzzle: Sensor for hsa-mir-208a)", "SCALE_UNIT": "nM", "apparent KD of MS2 coat protein": 31.1}

Lab book: apparent KD of MS2 coat protein of CAAGCUUGGGUCGUCCCGCUCGUCUACAAACAUGAGGAUCACCCAUGUAAAAUCUAAAAUUCAAAUCUAUCUCUAAA [Getienre] (puzzle: Sensor for hsa-mir-208a) noted as 563

Lab book: apparent KD of MS2 coat protein of UCUUGGUUUUUGCUCGUUUUUUGUGUUGAACAUGAGGAUCACCCAUGUAUUGUACAGUCCAGUUUAAUAAUGGUCCG [JMF 55] (puzzle: Sensor for hsa-mir-208a) noted as 38.1

Lab book: apparent KD of MS2 coat protein of GAGGAUGAUUUACAGGAUAUAUAGCAGAUGACAUGAGGAUCACCCAUGUAAGAGAAAGGAGGGAGAUAGAAGGGUAUGGGAUGUG [JR_SS2_Sub039] (puzzle: Same State 2) noted as 22.3

Lab book: apparent KD of MS2 coat protein of GGUCCAGCCUGAGCUGGACAAAAGCAUGUACAUGAGGAUCACCCAUGUUCAUGUACAAGCUUUUUGCUCGUCUUAUU [salish99_208a_r3_049] (puzzle: Sensor for hsa-mir-208a) noted as 687

Lab book: apparent KD of MS2 coat protein of UCUUGGUUUUUGCUCGUUUUUUGUGUUGAACAUGAGGAUCACCCAUGUAUUAUACGGUCCGGUUUAAUAAUAAUCCG [JMF 81] (puzzle: Sensor for hsa-mir-208a) noted as 27.3

Lab book: apparent KD of MS2 coat protein of AACCUACAUGAGGAUCACCCAUGUGUCUAAGGCACAGGAUAUCGACAGGCAAGACGCCUGCGAGAAGGGUGACCUA [Erononer] (puzzle: Same State 1) noted as 262
